system: H2228; test: Cell viability assay (CellTiter-Meiluncell Luminescent), tumor cell proliferation, H2228; conditions: Homo sapiens, NCI-H2228, 96 h, read-out: Inhibition Rate at 500 nM (%)
measured-metric: inhibition at 0.5 µM

Observe how each entry below is paired with its result.
O=C1CCN(N2C(=O)c3ccc(CN4CCN(c5ncnc6sc(-c7ccccc7)cc56)CC4)cc3C2=O)C(=O)N1 :: 30 to 40%
O=C1CCN(N2Cc3cc(CN4CC=C(c5ncnc6sccc56)CC4)ccc3C2=O)C(=O)N1 :: 20 to 25%
O=C1CCN(N2Cc3cc(CN4CC=C(c5cccc(Cl)c5Cl)CC4)ccc3C2=O)C(=O)N1 :: 40 to 60%

Req: Returns the measured inhibition at 0.5 µM for the input molecule. Input: O=C1CCN(N2Cc3cc(CNC45CC6CC(CC(O)(C6)C4)C5)ccc3C2=O)C(=O)N1
Resp: 30 to 40%

Req: Returns the measured inhibition at 0.5 µM for the input molecule. Input: O=C1CCN(N2Cc3cc(CN4CCN(c5ncnc6sccc56)CC4)ccc3C2=O)C(=O)N1
Resp: 20 to 25%
